Biological target: biotinylated labeled human GPC3 protein (produced in-house) (human, UniProt P51654 25-559, limits assumed, biotinylated (Dojindo, Cat. No. LK03); sites not stated)
Assay: ELISA, biotinylated human GPC3 protein
Readout Type: OD450 at 13.33 nM (OD450)
Numeric answer only, unit OD450 assumed.

Binder	Reading Unit	Measured Value
hAb005LH3L1a (antibody, human IgG1, V domains shown, Humanized F3.54.12; VH H3 + VL L1a; expressed as human IgG1) VH: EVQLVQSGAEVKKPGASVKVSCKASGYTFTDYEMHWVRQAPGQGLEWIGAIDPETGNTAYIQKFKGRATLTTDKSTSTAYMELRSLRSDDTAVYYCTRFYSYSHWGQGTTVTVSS VL: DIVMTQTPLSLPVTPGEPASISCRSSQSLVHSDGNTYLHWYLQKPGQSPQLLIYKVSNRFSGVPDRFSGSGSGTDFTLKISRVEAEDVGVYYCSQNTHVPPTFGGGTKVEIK	OD450	0.153

Query: State its OD450 at 13.33 nM for this binder: hAb007LH2L1b (antibody, human IgG1, V domains shown, Humanized F3.81.19; VH H2 + VL L1b; expressed as human IgG1) VH: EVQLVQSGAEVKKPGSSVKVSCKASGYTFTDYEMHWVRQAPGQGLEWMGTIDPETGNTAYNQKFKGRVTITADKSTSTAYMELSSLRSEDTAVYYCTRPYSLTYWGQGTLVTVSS VL: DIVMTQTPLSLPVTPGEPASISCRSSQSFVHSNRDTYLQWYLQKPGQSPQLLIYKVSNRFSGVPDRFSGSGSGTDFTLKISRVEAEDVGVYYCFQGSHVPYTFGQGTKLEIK
Result: 2.33

Values from patent US20260116991A1
